SYSTEM NAME: Acetylcholinesterase (Mus musculus, UniProt P21836)
Sequence (P21836 whole entry): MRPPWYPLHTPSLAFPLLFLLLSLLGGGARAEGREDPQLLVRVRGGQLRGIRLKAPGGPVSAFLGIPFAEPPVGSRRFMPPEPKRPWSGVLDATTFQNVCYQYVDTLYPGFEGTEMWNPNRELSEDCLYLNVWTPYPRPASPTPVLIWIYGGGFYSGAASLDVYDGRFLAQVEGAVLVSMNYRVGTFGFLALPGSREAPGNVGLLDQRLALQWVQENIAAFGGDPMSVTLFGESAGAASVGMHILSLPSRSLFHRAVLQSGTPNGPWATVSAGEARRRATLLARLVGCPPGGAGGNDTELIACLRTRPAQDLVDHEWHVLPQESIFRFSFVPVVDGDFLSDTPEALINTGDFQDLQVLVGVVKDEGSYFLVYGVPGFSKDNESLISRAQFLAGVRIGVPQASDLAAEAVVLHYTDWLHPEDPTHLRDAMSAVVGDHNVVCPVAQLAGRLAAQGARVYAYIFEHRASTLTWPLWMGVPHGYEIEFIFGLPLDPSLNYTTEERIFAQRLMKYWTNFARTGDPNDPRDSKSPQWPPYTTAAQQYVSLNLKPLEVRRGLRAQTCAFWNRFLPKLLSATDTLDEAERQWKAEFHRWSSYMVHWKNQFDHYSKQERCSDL
pIC50: −log10 of the molar value.
Assign YES to entries whose pIC50 meets or exceeds 4; assign NO to the rest.

1) O=C(Nc1ccccc1Cl)Oc1ccc2c(c1)CCCN2Cc1ccc(Cl)cc1Cl	YES
2) O=C(Nc1cccc(Br)c1)Oc1ccc2c(c1)CCCN2Cc1ccc(Cl)cc1Cl	NO
3) O=C(Nc1ccc(Cl)cc1)Oc1ccc2c(c1)CCCN2Cc1ccc(Cl)cc1Cl	NO

Data request: Given CCCCCCNC(=O)Oc1ccc2c(c1)CCCN2Cc1ccc(Cl)cc1Cl , state whether its pIC50 is at least 4.
Data returned: YES
